measurement_name: pKi
Note: pKi values are expressed as the negative base-10 logarithm of concentration in M.

Form entry - test system: 5-hydroxytryptamine receptor 7 (Homo sapiens); read-out: pKi; compound: c1ccc2c(OCCCCCN3CCCCC3)cccc2c1 5.64

====

- Tested on: Mus musculus
- assay_summary: Analgesic activity in ip dosed albino Swiss CD1 mouse assessed reduction in formalin-induced inflammatory pain by measuring reduction in time spent in licking pretreated prior to formalin injection measured at 15 to 30 mins post formalin injection
- Format: functional
Assign ED50 to each entry below.
Unit mg/kg implied. Number only.

For the molecule c1ccc2c(OCCCCCCN3CCCCCC3)cccc2c1 , what ED50 is on record? 18.1

What measured ED50 goes with c1ccc2c(OCCCCCN3CCCCCC3)cccc2c1 ? 20.8

Find the recorded ED50 belonging to CC(=O)Oc1ccccc1C(=O)O and report it. 25.2

Looking for the measured ED50 of c1ccc2c(OCCCCCN3CCCCC3)cccc2c1 , can you help? 30

====

- assay_summary: Therapeutic index, ratio of ip dosed albino CF-1 mouse TD50 to ip dosed albino CF-1 mouse ED50 for MES assay
- Format: toxicity, organism-based
- condition: in vivo, read-out: TI
I'd appreciate it if you could supply selectivity ratio values for the items below.
Just the number.

// query selectivity ratio value for entry Nc1nnc(-c2cccc(Cl)c2Cl)c(N)n1 4

selectivity ratio for c1ccc2c(OCCCCCN3CCCCC3)cccc2c1 ? 4.9

====

- assayed_system: CYP3A4 (Homo sapiens)
- Sequence (P08684 whole entry): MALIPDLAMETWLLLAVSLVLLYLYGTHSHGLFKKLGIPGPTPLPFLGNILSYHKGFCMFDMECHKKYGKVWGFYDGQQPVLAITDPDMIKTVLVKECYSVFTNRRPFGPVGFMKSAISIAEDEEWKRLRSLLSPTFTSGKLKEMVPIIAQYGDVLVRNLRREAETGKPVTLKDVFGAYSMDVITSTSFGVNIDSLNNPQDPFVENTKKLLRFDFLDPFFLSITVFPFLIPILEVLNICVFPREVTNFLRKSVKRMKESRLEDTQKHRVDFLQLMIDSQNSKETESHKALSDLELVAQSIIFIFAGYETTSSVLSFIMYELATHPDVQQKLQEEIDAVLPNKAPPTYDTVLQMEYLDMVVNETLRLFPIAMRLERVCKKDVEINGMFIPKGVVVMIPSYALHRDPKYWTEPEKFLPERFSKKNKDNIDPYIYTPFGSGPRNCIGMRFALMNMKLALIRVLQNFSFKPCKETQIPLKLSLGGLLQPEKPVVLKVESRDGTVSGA
- assay_summary: Inhibition of CYP3A4 (unknown origin) at 25 uM by CYP3A4 P450-Glo assay
- Assay type: ADME
Can you tell me inhibition at 25 µM for the items I'm about to list?
Just the number in %, nothing appended.

GET /values?readout=inhibition at 25 µM&item= c1ccc2c(OCCCCCN3CCCCC3)cccc2c1 50

Consider the compound shown here: c1ccc2c(OCCCCCN3CCCCCC3)cccc2c1 What is its recorded inhibition at 25 µM? 50

Look at this compound and give its reported inhibition at 25 µM. CC1CCCN(CCCCCOc2cccc3ccccc23)C1 (stereo not drawn) 50

====

- Tested on: HepG2
- assay_summary: Cytotoxicity against human HepG2 cells assessed as reduction in cell viability after 72 hrs by MTS assay
- Format: cell-based
- condition: HepG2, 72 h
measurement_name: pIC50
Quick note: pIC50 values are minus log10 of concentrations in mol/L.

Reported pIC50 for HepG2, given CC1CCCN(CCCCCOc2cccc3ccccc23)C1 (centres undefined) ? 4.41

Fill in the recorded pIC50 for this compound, with HepG2 as test system: COc1cccc2c1C(=O)c1c(O)c3c(c(O)c1C2=O)C[C@@](O)(C(=O)CO)C[C@@H]3O[C@H]1C[C@H](N)[C@H](O)[C@H](C)O1 [DOXORUBICIN] 6.26

Param readout= pIC50; system= HepG2; entry= c1ccc2c(OCCCCCN3CCCCCC3)cccc2c1 ; returns value. 4.60

====

- assay_summary: Therapeutic index, ratio of po dosed Sprague-Dawley rat TD50 to po dosed Sprague-Dawley rat ED50 for MES assay
- Format: toxicity, organism-based
- condition: in vivo, read-out: TI
measurement_name: selectivity ratio

# query: selectivity ratio of entry c1ccc2c(OCCCCCN3CCCCC3)cccc2c1 > 6.4

====

- assayed_system: Histamine H3 receptor (Homo sapiens)
- Sequence (Q9Y5N1 whole entry): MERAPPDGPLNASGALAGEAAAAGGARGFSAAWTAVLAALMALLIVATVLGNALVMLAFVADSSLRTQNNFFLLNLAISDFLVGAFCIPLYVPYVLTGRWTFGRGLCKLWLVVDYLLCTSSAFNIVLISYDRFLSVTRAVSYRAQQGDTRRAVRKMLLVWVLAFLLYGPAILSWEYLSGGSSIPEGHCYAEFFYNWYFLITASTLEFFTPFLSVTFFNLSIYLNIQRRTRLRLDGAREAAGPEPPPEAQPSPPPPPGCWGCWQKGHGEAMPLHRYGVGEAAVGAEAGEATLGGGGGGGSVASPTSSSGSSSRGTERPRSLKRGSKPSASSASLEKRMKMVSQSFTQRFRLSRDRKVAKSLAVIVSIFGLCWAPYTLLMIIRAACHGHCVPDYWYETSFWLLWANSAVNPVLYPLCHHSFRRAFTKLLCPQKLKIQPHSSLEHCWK
- assay_summary: Displacement of [3H]N-alpha-methylhistamine from full length human H3 receptor expressed in HEK293 cell membranes after 90 mins
measurement_name: Ki
Form field: result (number plus unit)

Can you look up the measured Ki of c1ccc2c(OCCCCCN3CCCCCC3)cccc2c1 for me? 0.0219 µM

// Ki lookup, key: CC1CCN(CCCCCCOc2ccc3ccccc3c2)CC1 0.0921 µM

Tell me the measured Ki of CC1CCCN(CCCCCOc2ccc3ccccc3c2)C1 (configuration not stated) , please. 0.0423 µM

Could you share which Ki value was measured for c1ccc2c(OCCCCCN3CCCCC3)cccc2c1 ? 0.0539 µM

Request the reported Ki associated with c1ccc2cc(OCCCCCN3CCCCC3)ccc2c1 0.0535 µM

Entry CC1CCCN(CCCCCOc2cccc3ccccc23)C1 (configuration not stated) : reported Ki = ? 0.0328 µM

Any idea what Ki was measured for CC1CCCN(CCCCCCOc2ccc3ccccc3c2)C1 (configuration not stated) ? 0.0559 µM

Each recorded value in this set is attributed to ChEMBL document CHEMBL4118139.
